system: 362531-283-R-J2-PDC complex spheroid viability; assay: Anticancer human tumor 362531-283-R-J2-PDC patient-derived colon adenocarcinoma cell line growth inhibition [RAS]; conditions: second compound 0.0316 µM; first compound 0.316 µM; hits give low values
parameter: viability, T/C (%)
Answer format: numeric, % implied, no suffix.

Recorded viability, T/C, per entry:
[[record]]
compound = "CCN1CCN(Cc2ccc(Nc3ncc(F)c(-c4cc(F)c5nc(C)n(C(C)C)c5c4)n3)nc2)CC1 + C#Cc1c(F)ccc2cc(O)cc(-c3ncc4c(N5CC6CCC(C5)N6)nc(OCC56CCCN5CC(F)C6)nc4c3F)c12"
parameter = "viability, T/C"
measured = 62.4

[[record]]
compound = "NC1c2ccccc2OC12CCN(c1cnc3c(N4CCCc5ncccc54)n[nH]c3n1)CC2 (stereo not given) + C=CC(=O)N1CCN(c2nc(OCC3CCCN3C)nc3c(F)c(-c4nc(N)cc(C)c4C(F)(F)F)c(Cl)cc23)C(C)C1"
parameter = "viability, T/C"
measured = 73.3


With 362531-283-R-J2-PDC complex spheroid viability as the test system, provide measured viability, T/C for this compound: NC1c2ccccc2OC12CCN(c1cnc3c(N4CCCc5ncccc54)n[nH]c3n1)CC2 (stereo not given) + C#Cc1c(F)ccc2cc(O)cc(-c3ncc4c(N5CC6CCC(C5)N6)nc(OCC56CCCN5CC(F)C6)nc4c3F)c12
60.9

With 362531-283-R-J2-PDC complex spheroid viability as the test system, provide measured viability, T/C for this compound: CC1(O)CCCC1n1c(=O)c(C(F)F)cc2cnc(NC3CCN(S(C)(=O)=O)CC3)nc21 (stereo not given) + C=CC(=O)N1CCN(c2nc(OCC3CCCN3C)nc3c(F)c(-c4nc(N)cc(C)c4C(F)(F)F)c(Cl)cc23)C(C)C1
82.8

With 362531-283-R-J2-PDC complex spheroid viability as the test system, provide measured viability, T/C for this compound: Nc1ccn(C2OC(CO)C(O)C2(F)F)c(=O)n1 (stereo not given) + C=CC(=O)N1CCN(c2nc(OCC3CCCN3C)nc3c(F)c(-c4nc(N)cc(C)c4C(F)(F)F)c(Cl)cc23)C(C)C1
23.6

* * *

system: 362531-283-R-J2-PDC complex spheroid viability; assay: Anticancer human tumor 362531-283-R-J2-PDC cell line growth inhibition [RAS]; details: second compound 0.0949 µM; first compound 10 µM; active means viability on the fitted dose curve at most 10% of control; inactive means the rest;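 also: spheroids exposed to the agents for 7 days before readout; luminescence viability as percent of DMSO vehicle control wells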
Output constraint: value belongs to 1 (yes) for active, 0 (no) for inactive

These solved cases illustrate the format of a correct answer.
[[record]]
compound = "Cc1nc(N2CCC3(CC2)COC(C)C3N)c(CO)nc1Sc1ccnc(N)c1Cl (stereo not drawn) + CCn1c(-c2cccnc2C(C)OC)c2c3cc(ccc31)N1CCOC(CC(NC(=O)C(C(C)C)N(C)C(=O)C3(F)CCN(C(=O)C#CC(C)(C)N(C)C)CC3)C(=O)N3CCCC(N3)C(=O)OCC(C)(C)C2)C1"
class_assignment = "0 (no)"

[[record]]
compound = "CC1(O)CCCC1n1c(=O)c(C(F)F)cc2cnc(NC3CCN(S(C)(=O)=O)CC3)nc21 (stereo not drawn) + CCn1c(-c2cccnc2C(C)OC)c2c3cc(ccc31)N1CCOC(CC(NC(=O)C(C(C)C)N(C)C(=O)C3(F)CCN(C(=O)C#CC(C)(C)N(C)C)CC3)C(=O)N3CCCC(N3)C(=O)OCC(C)(C)C2)C1"
class_assignment = "0 (no)"


Alright, here's another compound for you.
What is the recorded call for this compound in the test? Cc1nc(N2CCC3(CC2)COC(C)C3N)c(CO)nc1Sc1ccnc(N)c1Cl (stereo not drawn) + CCn1c(-c2cc(N3CCN(C)CC3)cnc2C(C)OC)c2c3cc(ccc31)-c1csc(n1)CC(NC(=O)C1CC1C)C(=O)N1CCCC(N1)C(=O)OCC(C)(C)C2
1 (yes)

* * *

system: 362531-283-R-J2-PDC complex spheroid viability; assay: Anticancer human tumor 362531-283-R-J2-PDC cell line growth inhibition [RAS]; conditions: second compound 10 µM; first compound 1 µM; hits give low values;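 also: spheroids exposed to the agents for 7 days before readout; luminescence viability as percent of DMSO vehicle control wells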
Simple rule here: viability, T/C less than 10% is condition met, otherwise condition not met.

These solved cases illustrate the format of a correct answer.
[[record]]
compound = "CC(Nc1ccc2c(c1)OCCn1cc(N3C(=O)OCC3C(F)F)nc1-2)C(N)=O (stereo not drawn) + C#Cc1c(F)ccc2cc(O)cc(-c3ncc4c(N5CC6CCC(C5)N6)nc(OCC56CCCN5CC(F)C6)nc4c3F)c12"
class_assignment = "condition met"

[[record]]
compound = "C=CC(=O)N1CCN(c2nc(OCC3CCCN3C)nc3c(F)c(-c4nc(N)cc(C)c4C(F)(F)F)c(Cl)cc23)C(C)C1 (stereo not drawn) + C#Cc1c(F)ccc2cc(O)cc(-c3ncc4c(N5CC6CCC(C5)N6)nc(OCC56CCCN5CC(F)C6)nc4c3F)c12"
class_assignment = "condition not met"

[[record]]
compound = "CC1(O)CCCC1n1c(=O)c(C(F)F)cc2cnc(NC3CCN(S(C)(=O)=O)CC3)nc21 (stereo not drawn) + C#Cc1c(F)ccc2cc(O)cc(-c3ncc4c(N5CC6CCC(C5)N6)nc(OCC56CCCN5CC(F)C6)nc4c3F)c12"
class_assignment = "condition not met"

[[record]]
compound = "O=C(c1ccc(F)c(F)c1Nc1ccc(I)cc1F)N1CC(O)([C@@H]2CCCCN2)C1 + C#Cc1c(F)ccc2cc(O)cc(-c3ncc4c(N5CC6CCC(C5)N6)nc(OCC56CCCN5CC(F)C6)nc4c3F)c12"
class_assignment = "condition met"

[[record]]
compound = "CC(=O)OC12COC1CC(O)C1(C)C(=O)C(O)C3=C(C)C(OC(=O)C(O)C(NC(=O)OC(C)(C)C)c4ccccc4)CC(O)(C(OC(=O)c4ccccc4)C21)C3(C)C (stereo not drawn) + C#Cc1c(F)ccc2cc(O)cc(-c3ncc4c(N5CC6CCC(C5)N6)nc(OCC56CCCN5CC(F)C6)nc4c3F)c12"
class_assignment = "condition not met"

[[record]]
compound = "Cc1nc(N2CCC3(CC2)COC(C)C3N)c(CO)nc1Sc1ccnc(N)c1Cl (stereo not drawn) + C#Cc1c(F)ccc2cc(O)cc(-c3ncc4c(N5CC6CCC(C5)N6)nc(OCC56CCCN5CC(F)C6)nc4c3F)c12"
class_assignment = "condition not met"

[[record]]
compound = "C[C@@H](NC(=O)c1ncnc(N)c1Cl)c1ncc(C(=O)Nc2cc(C(F)(F)F)c(Cl)cn2)s1 + C#Cc1c(F)ccc2cc(O)cc(-c3ncc4c(N5CC6CCC(C5)N6)nc(OCC56CCCN5CC(F)C6)nc4c3F)c12"
class_assignment = "condition not met"


State whether 10% exceeds viability, T/C recorded for C=CC(=O)Nc1cc(Nc2nccc(-c3cn(C)c4ccccc34)n2)c(OC)cc1N(C)CCN(C)C + C#Cc1c(F)ccc2cc(O)cc(-c3ncc4c(N5CC6CCC(C5)N6)nc(OCC56CCCN5CC(F)C6)nc4c3F)c12 .
condition not met

* * *

tested on: 362531-283-R-J2-PDC complex spheroid viability; assay: Anticancer human tumor 362531-283-R-J2-PDC cell line growth inhibition [RAS]; conditions: second compound 0.0949 µM; first compound 0.003 µM; hits give low values;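 also: spheroids exposed to the agents for 7 days before readout; luminescence viability as percent of DMSO vehicle control wells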
parameter: viability, T/C

Recorded viability, T/C, per entry:
[[record]]
compound = "CCc1c2c(nc3ccc(O)cc13)-c1cc3c(c(=O)n1C2)COC(=O)[C@]3(O)CC + CCn1c(-c2cc(N3CCN(C)CC3)cnc2C(C)OC)c2c3cc(ccc31)-c1csc(n1)CC(NC(=O)C1CC1C)C(=O)N1CCCC(N1)C(=O)OCC(C)(C)C2"
measured = "65.3%"

[[record]]
compound = "CCc1c2c(nc3ccc(O)cc13)-c1cc3c(c(=O)n1C2)COC(=O)[C@]3(O)CC + CCn1c(-c2cccnc2C(C)OC)c2c3cc(ccc31)N1CCOC(CC(NC(=O)C(C(C)C)N(C)C(=O)C3(F)CCN(C(=O)C#CC(C)(C)N(C)C)CC3)C(=O)N3CCCC(N3)C(=O)OCC(C)(C)C2)C1"
measured = "93.1%"

[[record]]
compound = "CC1(C)CCC(Nc2ncc(C(F)(F)F)c(-c3c[nH]c4c(P(C)(C)=O)c(C#N)ccc34)n2)CN1 (centres undefined) + CCn1c(-c2cccnc2C(C)OC)c2c3cc(ccc31)N1CCOC(CC(NC(=O)C(C(C)C)N(C)C(=O)C3(F)CCN(C(=O)C#CC(C)(C)N(C)C)CC3)C(=O)N3CCCC(N3)C(=O)OCC(C)(C)C2)C1"
measured = "99.5%"


The record that follows has no viability, T/C shown yet.
Tell me viability, T/C reported for CC1(C)CCC(Nc2ncc(C(F)(F)F)c(-c3c[nH]c4c(P(C)(C)=O)c(C#N)ccc34)n2)CN1 (centres undefined) + CCn1c(-c2cc(N3CCN(C)CC3)cnc2C(C)OC)c2c3cc(ccc31)-c1csc(n1)CC(NC(=O)C1CC1C)C(=O)N1CCCC(N1)C(=O)OCC(C)(C)C2
82%
